System: UniProt:P0A0I7
Protocol Text: cell-based
Set-up: species or system S. aureus USA300 strain UAMS-1625
Condition Description: IC50 at 40 mg/mL HSA, LB medium supplemented with 40 mg/mL human serum albumin
pIC50: −log10 of the molar value.
Give measured pIC50 for each item. Keep answers brief.

Here is how some molecules turned out for pIC50.
INSERT INTO measurements (molecule, reported_measurement) VALUES
  ('Cc1ccc(S(=O)(=O)c2nnn3c2[nH]c(=O)c2ccc(N4CCN(C(=O)C(C)C)CC4)cc23)c(C)c1', '4.01 to 4.71'),
  ('Cc1ccc(S(=O)(=O)c2n[nH]n3c2nc(=O)c2ccc(N4CC5(CC(O)C5)C4)cc23)c(C)c1', '3.97 to 4.67'),
  ('Cc1ccc(S(=O)(=O)c2nnn3c2[nH]c(=O)c2ccc(N4CCN(C5COC5)CC4)cc23)c(C)c1', '> 4.69'),
  ('Cc1ccc(S(=O)(=O)c2n[nH]n3c2nc(=O)c2ccc(N4CCC5(CCCN(C)C5)CC4)cc23)c(C)c1', '4.02 to 4.72'),
  ('Cc1ccc(S(=O)(=O)c2nnn3c2[nH]c(=O)c2ccc(N4CC(C)NC(C)C4)cc23)c(C)c1 (stereo not drawn)', '3.97 to 4.67'),
  ('Cc1ccc(S(=O)(=O)c2nnn3c2[nH]c(=O)c2ccc(N4CCCN(CCO)CC4)cc23)c(C)c1', '4.00 to 4.70');

Consider the following items and state reported pIC50 for each.
1. Cc1ccc(S(=O)(=O)c2n[nH]n3c2nc(=O)c2ccc(N4CCC5(CCNC[C@@H]5O)CC4)cc23)c(C)c1
2. Cc1ccc(S(=O)(=O)c2nnn3c2[nH]c(=O)c2ccc(N4CCC(C(=O)O)CC4)cc23)c(C)c1
3. Cc1ccc(S(=O)(=O)c2nnn3c2[nH]c(=O)c2ccc(N4CCN(CCN)CC4)cc23)c(C)c1
4. Cc1ccc(S(=O)(=O)c2nnn3c2[nH]c(=O)c2ccc(N4CCCOCC4)cc23)c(C)c1
5. Cc1ccc(S(=O)(=O)c2nnn3c2[nH]c(=O)c2ccc(N4CC5(CCN5C)C4)cc23)c(C)c1
6. Cc1ccc(S(=O)(=O)c2nnn3c2[nH]c(=O)c2ccc(N4CCn5ccnc5C4)cc23)c(C)c1

1: 4.02 to 4.72; 2: > 4.68; 3: 3.98 to 4.68; 4: 3.96 to 4.66; 5: 3.97 to 4.67; 6: 3.98 to 4.68

###

Give measured pIC50 for each item. Keep answers brief.
System: AgrA (Staphylococcus aureus, UniProt P0A0I7)
Sequence (P0A0I7 whole entry): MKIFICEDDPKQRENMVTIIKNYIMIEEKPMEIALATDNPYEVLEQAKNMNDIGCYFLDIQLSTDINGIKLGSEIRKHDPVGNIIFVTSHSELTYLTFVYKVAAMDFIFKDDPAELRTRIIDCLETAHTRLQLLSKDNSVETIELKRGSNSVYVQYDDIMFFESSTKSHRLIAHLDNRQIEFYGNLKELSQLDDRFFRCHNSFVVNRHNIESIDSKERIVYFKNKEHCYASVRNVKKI
Protocol Text: cell-based
Design: species or system S. aureus USA300 strain UAMS-1625
Condition Description: concentration inhibiting the expression of lacZ, in the absence of HSA or HS
pIC50: −log10 of the molar value.

Here is how some compounds turned out for pIC50.
INSERT INTO measurements (compound, system, reported_measurement) VALUES
  ('Cc1ccc(S(=O)(=O)c2nnn3c2[nH]c(=O)c2cc(O)ccc23)c(C)c1 [46 (WO 2020/109350), reference compound]', 'AgrA (Staphylococcus aureus, UniProt P0A0I7)', '> 5.57'),
  ('Cc1ccc(S(=O)(=O)c2nnn3c2[nH]c(=O)c2ccc(N4CCC4)cc23)c(C)c1 [45 (WO 2020/109350), reference compound]', 'AgrA (Staphylococcus aureus, UniProt P0A0I7)', '> 5.61');

Continue with the next compound.
For COCCOc1cc2c(cc1O)c(=O)[nH]c1c(S(=O)(=O)c3ccc(C)cc3C)nnn12 [58 (WO 2020/109350), reference compound] , what is its reported pIC50?
> 5.65

###

System: AgrA (Staphylococcus aureus, UniProt P0A0I7)
Protocol Text: cell-based
Design: species or system S. aureus USA300 strain UAMS-1625
Condition Description: IC50 at 40 mg/mL HSA, LB medium supplemented with 40 mg/mL human serum albumin
Experimental Readout: IC50

Here is how some compounds turned out for IC50.
INSERT INTO results (compound, system, reported_measurement) VALUES
  ('Cc1ccc(S(=O)(=O)c2nnn3c2[nH]c(=O)c2ccc(N4C[C@@H](C)N(C)[C@@H](C)C4)cc23)c(C)c1', 'AgrA (Staphylococcus aureus, UniProt P0A0I7)', '< 20.8 µM'),
  ('Cc1ccc(S(=O)(=O)c2nnn3c2[nH]c(=O)c2ccc(N4CC5(CC(C(=O)O)C5)C4)cc23)c(C)c1', 'AgrA (Staphylococcus aureus, UniProt P0A0I7)', '< 20.3 µM'),
  ('Cc1ccc(S(=O)(=O)c2nnn3c2[nH]c(=O)c2ccc(N4CCN(CCOCCO)CC4)cc23)c(C)c1', 'AgrA (Staphylococcus aureus, UniProt P0A0I7)', '19 to 94.9 µM'),
  ('COCCN1CCN(c2ccc3c(=O)[nH]c4c(S(=O)(=O)c5ccc(C)cc5C)nnn4c3c2)CC1', 'AgrA (Staphylococcus aureus, UniProt P0A0I7)', '20.1 to 101 µM'),
  ('Cc1ccc(S(=O)(=O)c2nnn3c2[nH]c(=O)c2ccc(N4C[C@H](C)NC[C@H]4C)cc23)c(C)c1 (racemic)', 'AgrA (Staphylococcus aureus, UniProt P0A0I7)', '< 21.4 µM'),
  ('Cc1ccc(S(=O)(=O)c2nnn3c2[nH]c(=O)c2cc(O)c(N4CCN(C)CC4)cc23)c(C)c1', 'AgrA (Staphylococcus aureus, UniProt P0A0I7)', '< 21.3 µM');

Consider the following items and state reported IC50 for each.
1. Cc1ccc(S(=O)(=O)c2nnn3c2[nH]c(=O)c2ccc(N4CCCN(C)CC4)cc23)c(C)c1
2. Cc1ccc(S(=O)(=O)c2nnn3c2[nH]c(=O)c2ccc(N4CCC45CN(C)C5)cc23)c(C)c1
3. Cc1ccc(S(=O)(=O)c2n[nH]n3c2nc(=O)c2ccc(N4CCOC5(CCNCC5)C4)cc23)c(C)c1

1. 21.4 to 107 µM
2. 21.5 to 108 µM
3. 19.7 to 98.3 µM

###

System: UniProt P0A0I7
Protocol Text: cell-based
Design: species or system S. aureus USA300 strain UAMS-1625
Condition Description: 40 mg/mL HSA vs without HSA
Experimental Readout: Ratio IC50 (in presence of HSA)/IC50 (in absence of HSA)

Here is how some molecules turned out for Ratio IC50 (in presence of HSA)/IC50 (in absence of HSA).
INSERT INTO assay_data (molecule, reported_measurement) VALUES
  ('Cc1ccc(S(=O)(=O)c2nnn3c2[nH]c(=O)c2ccc(N4CC5(CC(C(=O)O)C5)C4)cc23)c(C)c1 [Compound 63]', '+++ (ratio ≤ 25)'),
  ('Cc1ccc(S(=O)(=O)c2n[nH]n3c2nc(=O)c2ccc(N4CCC5(CC4)CN(C)CCO5)cc23)c(C)c1 [Compound 16]', '++ (ratio ≤ 125)'),
  ('Cc1ccc(S(=O)(=O)c2nnn3c2[nH]c(=O)c2ccc(N4C[C@H](C)NC[C@H]4C)cc23)c(C)c1 (racemic) [Compound 28]', '+++ (ratio ≤ 25)'),
  ('Cc1ccc(S(=O)(=O)c2nnn3c2[nH]c(=O)c2ccc(N4CC(C)NC(C)C4)cc23)c(C)c1 (stereo not drawn) [Compound 26]', '+++ (ratio ≤ 25)'),
  ('Cc1ccc(S(=O)(=O)c2n[nH]n3c2nc(=O)c2ccc(N4CCC5(CCNC[C@@H]5O)CC4)cc23)c(C)c1 [Compound 19]', '+++ (ratio ≤ 25)'),
  ('Cc1ccc(S(=O)(=O)c2nnn3c2[nH]c(=O)c2ccc(N4CCN(C(=O)C(C)C)CC4)cc23)c(C)c1 [Compound 52]', '+++ (ratio ≤ 25)'),
  ('CNC1CCN(c2ccc3c(=O)[nH]c4c(S(=O)(=O)c5ccc(C)cc5C)nnn4c3c2)CC1 [Compound 31]', '+++ (ratio ≤ 25)'),
  ('Cc1ccc(S(=O)(=O)c2nnn3c2[nH]c(=O)c2ccc(N4CCCOCC4)cc23)c(C)c1 [Compound 48]', '++ (ratio ≤ 125)'),
  ('Cc1ccc(S(=O)(=O)c2nnn3c2[nH]c(=O)c2ccc(N4CC5(CCN5C)C4)cc23)c(C)c1 [Compound 12]', '+++ (ratio ≤ 25)'),
  ('Cc1ccc(S(=O)(=O)c2nnn3c2[nH]c(=O)c2ccc(N4CC[C@@H](N)C4)cc23)c(C)c1 [Compound 35]', '+++ (ratio ≤ 25)');

Consider the following items and state reported Ratio IC50 (in presence of HSA)/IC50 (in absence of HSA) for each.
1. Cc1ccc(S(=O)(=O)c2n[nH]n3c2nc(=O)c2ccc(N4CCOC5(CCN(C)CC5)C4)cc23)c(C)c1 [Compound 18]
2. Cc1ccc(S(=O)(=O)c2nnn3c2[nH]c(=O)c2ccc(N4CCN(CCOCCO)CC4)cc23)c(C)c1 [Compound 45]
3. Cc1ccc(S(=O)(=O)c2nnn3c2[nH]c(=O)c2ccc(N4CCN(CCN)CC4)cc23)c(C)c1 [Compound 57]

1: +++ (ratio ≤ 25); 2: +++ (ratio ≤ 25); 3: +++ (ratio ≤ 25)

Consider the following items and state reported Ratio IC50 (in presence of HSA)/IC50 (in absence of HSA) for each.
1. Cc1ccc(S(=O)(=O)c2nnn3c2[nH]c(=O)c2ccc(N4CCN5CCC[C@@H]5C4)cc23)c(C)c1 [Compound 38]
2. Cc1ccc(S(=O)(=O)c2nnn3c2[nH]c(=O)c2ccc(N4CCC(N)CC4)cc23)c(C)c1 [Compound 33]

+++ (ratio ≤ 25)
+++ (ratio ≤ 25)

Consider the following items and state reported Ratio IC50 (in presence of HSA)/IC50 (in absence of HSA) for each.
1. Cc1ccc(S(=O)(=O)c2nnn3c2[nH]c(=O)c2ccc(N4CCN(C5CC5)CC4)cc23)c(C)c1 [Compound 60]
2. Cc1ccc(S(=O)(=O)c2n[nH]n3c2nc(=O)c2ccc(N4CCOC5(CCNCC5)C4)cc23)c(C)c1 [Compound 17]
3. Cc1ccc(S(=O)(=O)c2n[nH]n3c2nc(=O)c2ccc(N4CCC5(CCCN(C)C5)CC4)cc23)c(C)c1 [Compound 4]

1: ++ (ratio ≤ 125); 2: +++ (ratio ≤ 25); 3: +++ (ratio ≤ 25)

Consider the following items and state reported Ratio IC50 (in presence of HSA)/IC50 (in absence of HSA) for each.
1. Cc1ccc(S(=O)(=O)c2nnn3c2[nH]c(=O)c2ccc(N4CCOC5(CN(C)C5)C4)cc23)c(C)c1 [Compound 10]
2. Cc1ccc(S(=O)(=O)c2nnn3c2[nH]c(=O)c2ccc(N4C[C@H]5CNC[C@H]5C4)cc23)c(C)c1 [Compound 40]
3. Cc1ccc(S(=O)(=O)c2nnn3c2[nH]c(=O)c2ccc(N4C[C@@H](C)N[C@@H](C)C4)cc23)c(C)c1 [Compound 24]
4. Cc1ccc(S(=O)(=O)c2nnn3c2[nH]c(=O)c2ccc(N4CCCN(CCO)CC4)cc23)c(C)c1 [Compound 46]
5. Cc1ccc(S(=O)(=O)c2nnn3c2[nH]c(=O)c2ccc(N4CCN(C)C(C)(C)C4)cc23)c(C)c1 [Compound 29]

["+++ (ratio ≤ 25)", "+++ (ratio ≤ 25)", "+++ (ratio ≤ 25)", "+++ (ratio ≤ 25)", "++ (ratio ≤ 125)"]
